Origin of the recorded values: paper PMC7822874

- methodSummary: Parallel artificial membrane permeability assay (PAMPA)
- Format: in vitro ADME
- assayContext: pH 7.4

{"smilesCode": "CCCN1C(CC(C)C)=NS(=O)(=O)c2cc(NC(=O)c3sccc3Cl)ccc21", "PAMPA pH7.4": "678 1e-6 cm/s"}
{"smilesCode": "CCCN1C(c2ccccc2)=NS(=O)(=O)c2cc(NC(=O)c3cccs3)ccc21", "PAMPA pH7.4": "714 1e-6 cm/s"}
{"smilesCode": "CCCN1C(CC(C)C)=NS(=O)(=O)c2cc(NC(=O)c3sccc3C)ccc21", "PAMPA pH7.4": "1597 1e-6 cm/s"}
{"smilesCode": "CCCN1C(CC(C)C)=NS(=O)(=O)c2cc(NC(=O)C3CCCC3)ccc21", "PAMPA pH7.4": "726 1e-6 cm/s"}
{"smilesCode": "CCCN1C(CC(C)C)=NS(=O)(=O)c2cc(NC(=O)c3sccc3F)ccc21", "PAMPA pH7.4": "770 1e-6 cm/s"}
{"smilesCode": "CC(C)CC1=NS(=O)(=O)c2cc(NC(=O)c3cccs3)ccc2N1C", "PAMPA pH7.4": "130 1e-6 cm/s"}
{"smilesCode": "CCCN1C(CC2CCCCC2)=NS(=O)(=O)c2cc(NC(=O)c3ccc(F)cc3)ccc21", "PAMPA pH7.4": "<1 1e-6 cm/s"}
{"smilesCode": "CN1C(c2ccccc2)=NS(=O)(=O)c2cc(NC(=O)c3ccc(F)cc3)ccc21", "PAMPA pH7.4": "3.25 1e-6 cm/s"}
{"smilesCode": "CC(C)CC1=NS(=O)(=O)c2cc(NC(=O)c3ccc(F)s3)ccc2N1C", "PAMPA pH7.4": "3.07 1e-6 cm/s"}
{"smilesCode": "CCCN1C(CC(C)C)=NS(=O)(=O)c2cc(NC(=O)c3ccc(F)s3)ccc21", "PAMPA pH7.4": "1480 1e-6 cm/s"}
{"smilesCode": "CCCN1C(c2ccccc2)=NS(=O)(=O)c2cc(NC(=O)c3ccc(F)cc3)ccc21", "PAMPA pH7.4": "896 1e-6 cm/s"}
{"smilesCode": "CCCN1C(CC(C)C)=NS(=O)(=O)c2cc(NC(=O)c3cccs3)ccc21", "PAMPA pH7.4": "222 1e-6 cm/s"}
{"smilesCode": "CCCN1C(CC(C)C)=NS(=O)(=O)c2cc(NC(=O)c3ccsc3)ccc21", "PAMPA pH7.4": "178 1e-6 cm/s"}
{"smilesCode": "CCCN1C(CC(C)C)=NS(=O)(=O)c2cc(NC(=O)Nc3nccs3)ccc21", "PAMPA pH7.4": "113 1e-6 cm/s"}
{"smilesCode": "CC(C)CC1=NS(=O)(=O)c2cc(NC(=O)c3ccc(F)cc3)ccc2N1C", "PAMPA pH7.4": "<1 1e-6 cm/s"}

----------
- Tested on: HepG2
- assayContext: human, hepg2 cells, 48 h
Reported Log AC50 (M) values for the following molecules.

{"molecule": "O=C1c2ccccc2C2=Nc3ccccc3SC(c3ccc(Cl)cc3)C12 (stereo not drawn) [MLS000566883-01]", "Log AC50 (M)": -4.3643}
{"molecule": "CC(Sc1nc2ccccc2c(=O)n1C)C(=O)N(C)C1CCCCC1 (stereo not drawn) [MLS001098006-01]", "Log AC50 (M)": -4.3643}
{"molecule": "CCn1c(/C=C/c2cc(Br)ccc2O)nc2ccccc2c1=O [MLS001205008-01]", "Log AC50 (M)": -4.8643}
{"molecule": "N=c1ccn(Cc2cccc(Cl)c2)cc1 [MLS000080111-01]", "Log AC50 (M)": -4.4643}
{"molecule": "COc1cc2c(Nc3ccc(Br)cc3F)ncnc2cc1OCC1CCN(C)CC1 [NCGC00167513-01]", "Log AC50 (M)": -4.5643}
{"molecule": "CC(=O)N1CCN(c2cc(-c3noc([C@@H]4CCCN4Cc4ccc(C(F)(F)F)cc4)n3)ccn2)CC1 [NCGC00394931-01]", "Log AC50 (M)": -4.5143}
{"molecule": "Cc1cc(Cl)c(S(=O)(=O)N2CCN(c3ccccn3)CC2)cc1OCC(=O)NC1CCCCC1 [MLS000693481-01]", "Log AC50 (M)": -4.5643}
{"molecule": "CCN(CC)CCn1c(=N)n(CC(=O)c2ccc(Br)s2)c2ccccc21 [MLS001045932-01]", "Log AC50 (M)": -4.5143}
{"molecule": "O=C(NC(c1ccc(Cl)cc1)c1cc(Cl)c2cccnc2c1O)c1cccnc1 (stereo not drawn) [MLS000573463-01]", "Log AC50 (M)": -4.3643}
{"molecule": "COc1ccc(C2c3ccc4ccccc4c3Oc3ncn(CCCN(C)C)c(=N)c32)cc1 (stereo not drawn) [MLS001216280-01]", "Log AC50 (M)": -4.4643}
{"molecule": "Cc1ccc(Oc2c(C)[nH]c(-c3ccccc3)nc2=O)cc1 [MLS000851017-01]", "Log AC50 (M)": -4.3643}
{"molecule": "CCc1nnc(NC(=O)c2cc(Cl)ccn2)s1 [MLS001175292-01]", "Log AC50 (M)": -4.3643}
{"molecule": "Cc1cccc(CN2CCCC(O)(CNCc3ncccc3C)C2=O)c1 (stereo not drawn) [NCGC00429062-01]", "Log AC50 (M)": -4.4143}
{"molecule": "Oc1cccc(C(Nc2nccs2)c2ccc3cccnc3c2O)c1 (stereo not drawn) [MLS000760926-01]", "Log AC50 (M)": -4.4143}
{"molecule": "CC1CCCCN1CCCNC(=O)c1ccc2c(c1)sc1nc(-c3ccc(F)cc3)cn12 (stereo not drawn) [NCGC00121681-01]", "Log AC50 (M)": -4.5143}
{"molecule": "CN1CCC(NCCC(c2ccc(F)cc2)c2ccc(Cl)cc2)CC1 (stereo not drawn) [MLS001215866-01]", "Log AC50 (M)": -4.4643}
{"molecule": "CCOc1ccc2nc(C)cc(Nc3ccc4c(c3)OCCO4)c2c1 [MLS000575119-01]", "Log AC50 (M)": -4.4143}
{"molecule": "Cc1noc(C)c1Cc1ccc(C(=O)N2[C@H]3CC[C@@H]2c2cnc(-c4ccccc4)nc2C3)o1 [NCGC00458744-01]", "Log AC50 (M)": -4.5643}
